Data provenance is ChEMBL document CHEMBL1201862.

Test system: A498
Assay notes: NCI tumour cell line growth inhibition, 48 h
The source made the active and inactive calls. No stated cut-off is given here; in the data, active = GI50 up to about 1.1 µM and inactive = higher.
Each entry below carries its recorded GI50.

{"Molecule": "Nc1ccc(C(=O)NN2C(=O)C(Cl)C2c2cc(Br)ccc2O)cc1 (stereo not drawn)", "GI50": "> 100 µM (inactive)"}
{"Molecule": "COC(=O)NC1(NC(=O)OC)NC(=O)c2ccccc2N1", "GI50": "> 100 µM (inactive)"}
{"Molecule": "C[N+](C)([O-])Cc1cc(-c2ccccc2)ccc1O", "GI50": "> 100 µM (inactive)"}
{"Molecule": "NC(=S)N/N=C\\CC(O)(C(F)(F)F)C(F)(F)F", "GI50": "> 10 µM (inactive)"}
{"Molecule": "CN(C)c1ccc(/C=C/C(=O)N[C@@H]2C(=O)N3[C@@H]2SC(C)(C)[C@@H]3C(=O)O)cc1", "GI50": "> 100 µM (inactive)"}

GI50 reading for COc1ccc(N)c(C(O)CCNC(C)=O)c1 (stereo not drawn) : > 100 µM (inactive)

GI50 reading for `CN(CCC(=O)O)S(=O)(=O)c1ccccc1` : > 100 µM (inactive)

GI50 reading for `CCOC(=O)/C=C(\C(=O)OCC)n1cc(Cl)c(=O)n(CC(=O)OCC)c1=O` : 19.2 µM (inactive)

* * *

Each entry below carries its recorded GI50.
Tested on: NCI/ADR-RES
Assay notes: NCI tumour cell line growth inhibition, 48 h
Active and inactive are the calls of the source. Cut-off read from the data, not from the text of the source: active = GI50 up to about 1.1 µM and inactive = higher.

Before answering, review these 5 worked examples.
{"Compound": "Oc1ccc(Cl)cc1C1=NC(NCNC2=NC(c3ccccc3)CC(c3cc(Cl)ccc3O)=N2)=NC(c2ccccc2)C1 (stereo unspecified)", "GI50": "82.4 µM (inactive)"}
{"Compound": "NC(=S)N/N=C\\CC(O)(C(F)(F)F)C(F)(F)F", "GI50": "> 10 µM (inactive)"}
{"Compound": "COc1ccc(-n2cnc3c2=NC(C)(C)NC=3C(N)=O)c(OC)c1", "GI50": "> 100 µM (inactive)"}
{"Compound": "c1ccc(C[n+]2cccc(-c3cc4ccccc4[nH]3)c2)cc1", "GI50": "> 100 µM (inactive)"}
{"Compound": "COc1cc(/C=C/c2ccc(O)c(OC)c2)cc(OC)c1", "GI50": "31 µM (inactive)"}

Switching to the query record.
GI50 reading for `CCN(CCCl)CCCCNc1c2ccccc2nc2ccc(OC)cc12` : 4.25 µM (inactive)

* * *

Each entry below carries its recorded GI50.
Test system: NCI-H226
Assay notes: NCI tumour cell line growth inhibition, 48 h
Active and inactive are the calls of the source. Cut-off read from the data, not from the text of the source: active = GI50 up to about 1.1 µM and inactive = higher. Square brackets hold non-standard residues; d marks the D form. Peptide text beside a SMILES is read from it. * marks the point of attachment. ξ: configuration not given here. ξD = NC(CC(=O)O)C(=O)O; Ac3c = NC1(C(=O)O)CC1; Boc = CC(C)(C)OC(=O)*; OtBu = CC(C)(C)O*

{"Molecule": "O=C1COc2cc3c(cc2N1)SCC(=O)N3", "GI50": "> 100 µM (inactive)"}

GI50 reading for `O=C(O)c1ccccc1/C=C1\Cc2ccc3c(c2C1=O)CCCC3` : 28.6 µM (inactive)

GI50 reading for CC(=O)NC1C(OCc2ccccc2)OC(CO)C(O)C1OCC(=O)N[C@@H](C)C(=O)N[C@H](CCC(=O)NCCCNc1ccc([N+](=O)[O-])c2[nH]c3ccccc3c(=O)c12)C(N)=O (some centres not stated) : 25.5 µM (inactive)

GI50 reading for `CCOC(=O)c1c(-c2ccccc2)nc2c(OC)nccn12` : > 100 µM (inactive)

GI50 reading for `O=c1c2c(nc3n1CCC3)sc1c(O)c(Br)ccc12` : 19.6 µM (inactive)

GI50 reading for COC(=O)C1(NC(=O)C(CC(=O)OC(C)(C)C)NC(=O)OC(C)(C)C)CC1 (configuration not stated) (Boc-[ξD](OtBu)-[Ac3c]-OMe) : > 100 µM (inactive)

GI50 reading for O=C(NC1(C(=O)NNc2nnc(-c3ccccc3)c(-c3ccccc3)n2)C(c2ccccc2)C(c2ccccc2)=NN1c1ccccc1)c1ccccc1 (configuration not stated) : > 100 µM (inactive)

* * *

Each entry below carries its recorded GI50.
Tested on: NCI-H460
Assay notes: NCI tumour cell line growth inhibition, 48 h
The source made the active and inactive calls. No stated cut-off is given here; in the data, active = GI50 up to about 1.1 µM and inactive = higher.

{"Compound": "COc1cc(C(Cc2ccccc2)NC(C)=O)oc(=O)c1 (stereo not given)", "GI50": "> 100 µM (inactive)"}
{"Compound": "CCC(O)C1Cc2c(C)cc3c(c2O1)C(=O)c1ccccc1C3=O (stereo not given)", "GI50": "27.3 µM (inactive)"}
{"Compound": "CC(=O)OC1CCC2OOC1O2 (stereo not given)", "GI50": "> 100 µM (inactive)"}
{"Compound": "Cc1ccc(-n2cc(-c3ccc(Cl)cc3)c3c2N=CN2N=C(c4cccs4)NC32)cc1 (stereo not given)", "GI50": "5.31 µM (inactive)"}

Field GI50 (NCI-H460), entry `COc1cc(/C=C/c2ccc(O)c(OC)c2)cc(OC)c1` : 19 µM (inactive)

Field GI50 (NCI-H460), entry CCCCC1=CC1(C#N)[N+](=O)[O-] (stereo not given) : > 100 µM (inactive)

Field GI50 (NCI-H460), entry `Cc1ccc2nc(NC(=O)/C(=N\NC(=S)NN)C3C(=O)NC(=S)NC3=O)sc2c1` : > 100 µM (inactive)

Field GI50 (NCI-H460), entry COc1ccc(CC2CCc3nc(N)nc(N)c3C2)cc1OC (stereo not given) : 0.0411 µM (active)

Field GI50 (NCI-H460), entry CC(C)(Br)C1(O)CCCN1C(=O)c1ccccc1 (stereo not given) : > 100 µM (inactive)

* * *

Each entry below carries its recorded GI50.
System: HOP-62
Assay notes: NCI tumour cell line growth inhibition, 48 h
Activity calls are given as the source filed them. No stated cut-off is given here; in the data, active = GI50 up to about 1.1 µM and inactive = higher.

Before answering, review these 5 worked examples.
{"Compound": "O=C(O)C12C3C4C1C1C2C3C1(Br)C41OCCO1 (stereo unspecified)", "Test system": "HOP-62", "Reported": "> 100 µM (inactive)"}
{"Compound": "CC(=O)N1c2ccccc2Sc2cc(C(O)(C(F)(F)F)C(F)(F)F)ccc21", "Test system": "HOP-62", "Reported": "> 10 µM (inactive)"}
{"Compound": "CCc1n[nH]c(=O)n1-n1c(C)ccc1C", "Test system": "HOP-62", "Reported": "> 100 µM (inactive)"}
{"Compound": "NC1CCCCC1.O=P(O)(O)C(O)/C=C/c1ccccc1 (stereo unspecified)", "Test system": "HOP-62", "Reported": "> 100 µM (inactive)"}
{"Compound": "CCN1C(=O)c2cc(OC)c(OC)cc2C(=O)C12OC(=O)c1cc3c(cc12)OCO3 (stereo unspecified)", "Test system": "HOP-62", "Reported": "49.4 µM (inactive)"}

GI50 reading for `O=[N+]([O-])/C=C/c1cc(Cl)c(/C=C/[N+](=O)[O-])cc1Cl` : 3.77 µM (inactive)

GI50 reading for `CCN(CC)CCOc1ccc(N2Cc3ccccc3C2=O)cc1` : > 10 µM (inactive)

GI50 reading for `O=C(OCc1ccccc1)N1CCNCCNCC1` : > 100 µM (inactive)

GI50 reading for CCCn1cc2c3c(cccc31)C1C=C(C)CN(C)C1C2 (stereo unspecified) : 31.7 µM (inactive)

GI50 reading for NC(=S)N/N=C1/CCCC2CCCC[C@@H]12 (stereo partly specified) : > 100 µM (inactive)

GI50 reading for CCCCCCOC(=O)C(N)Cc1ccc(OC)cc1 (stereo unspecified) : > 100 µM (inactive)

* * *

Tested on: U-251
Assay notes: NCI tumour cell line growth inhibition, 48 h
The source made the active and inactive calls. Cut-off read from the data, not from the text of the source: active = GI50 up to about 1.1 µM and inactive = higher.
Each entry below carries its recorded GI50.

Before answering, review these 7 worked examples.
{"Molecule": "O=C(O)CCNS(=O)(=O)c1ccc2ccccc2c1", "GI50": "> 100 µM (inactive)"}
{"Molecule": "O=[N+]([O-])/C=C/c1cc(Cl)c(/C=C/[N+](=O)[O-])cc1Cl", "GI50": "1.63 µM (inactive)"}
{"Molecule": "COc1cccc([C@H]2C/C(=N\\NC(=O)C(=O)N[C@@H](C)c3ccccc3)c3ccccc3N2)c1", "GI50": "7.67 µM (inactive)"}
{"Molecule": "Cc1c(N(Cc2ccccc2)Cc2ccccc2)nc(S(C)(=O)=O)nc1S(C)(=O)=O", "GI50": "2.53 µM (inactive)"}
{"Molecule": "NC1CCN(c2nc3ccccc3c3c2CCCC3)CC1", "GI50": "4.59 µM (inactive)"}
{"Molecule": "CN(C)/N=N/c1ccc([N+](=O)[O-])cc1C(N)=O", "GI50": "> 100 µM (inactive)"}
{"Molecule": "COP(=O)(C(/C=C/c1ccccc1)OC(C)=O)[C@@H]1CCCC[C@H]1N(CC(C)(C)C)C(C)=O (stereo partly drawn)", "GI50": "15.8 µM (inactive)"}

GI50 reading for CC1(c2cccc3ccccc23)OC(=O)c2ccccc21 (stereo not drawn) : 20 µM (inactive)
